pKi: −log10 of the molar value. Structures can show the parent of a compound that is named as a salt.
Listed here: compounds with reported pKi for Son of Sevenless (SOS) (Homo sapiens).

# example entries with known answers
compound	testTarget	pKi
CCC[C@H](N)c1cccc2c1nc(N1CCNCC1)n2Cc1ccc(F)c(Cl)c1 [Example 165, trifluoroacetate]	Son of Sevenless (SOS) (Homo sapiens)	5.30 to 6.00
Cc1cc(CO)c2nc(N3CCNCC3)n(Cc3cc(C)c(F)c(C)c3)c2c1 [Example 280]	Son of Sevenless (SOS) (Homo sapiens)	5.30 to 6.00
Cc1cc(Cn2c(NCCN)nc3c(-c4ccccc4Cl)cc(Cl)cc32)cc(C)c1F [Example 306]	Son of Sevenless (SOS) (Homo sapiens)	> 6.30

Hi team, please reply with pKi for each item in this list.
1. Cc1cc(OCCN2CCN(C)CC2)c2nc(N3CCNCC3)n(Cc3cc(C)c(F)c(C)c3)c2c1 [Example 201]
2. Cc1cc2nc(N3CCNCC3)n(Cc3ccc(F)c(Cl)c3)c2cc1C [Example 16, trifluoroacetate]
3. CN(C)CCn1nccc1-c1cc(Cl)cc2c1nc(N1CCNCC1)n2Cc1ccc(F)c(Cl)c1 [Example 175, trifluoroacetate]
4. Cc1cc2nc(N3CCCNCC3)n(Cc3ccc(F)c(Cl)c3)c2cc1C [Example 36, trifluoroacetate]
5. Cc1cc(CN2CCCCC2)c2nc(N3CCNCC3)n(Cc3cc(C)c(F)c(C)c3)c2c1 [Example 125, trifluoroacetate]
6. Cc1cc2nc(NCCN)n(Cc3ccc(F)c(Cl)c3)c2cc1Cl [Example 69, trifluoroacetate]
7. C=C[C@H](N)c1cc(Cl)cc2c1nc(NCCN)n2Cc1cc(C)c(F)c(C)c1 [Example 156, trifluoroacetate]
8. Cc1cc2nc(N3CCNCC3)n(Cc3cccc(Br)c3)c2cc1C [Example 34, trifluoroacetate]

Response:
1. 6.00 to 6.30
2. 5.30 to 6.00
3. 6.00 to 6.30
4. < 5.30
5. 5.30 to 6.00
6. 6.00 to 6.30
7. > 6.30
8. < 5.30

I'm hoping you can list pKi for every compound here, please.
1. Cc1cc2c(nc(NCCN)n2Cc2ccc(F)c(Cl)c2)c(-c2ccccc2)c1C [Example 111, trifluoroacetate]
2. Cc1cc2nc(NCCN)n(Cc3ccc(F)cc3)c2cc1C [Example 22, trifluoroacetate]
3. Cc1cc2c(nc(N3CCNCC3)n2Cc2ccc(F)c(C)c2)c(CNC(C)C)n1 [Example 233]

Response:
5.30 to 6.00
< 5.30
< 5.30
